# Tested on: M14 melanoma
# EXPERIMENT DESCRIPTION: NCI-60 one-dose screen, 48 h (100 = growth as untreated, 0 = no growth, -100 = all killed)
# CONDITION NOTES: 10 µM unless noted
# Method: Growth inhibition of the M14 human tumor cell line is measured as a screen for anti-cancer activity. Cells are grown in 96 well plates and exposed to the test compound for 48 hours. Compounds are tested at a single concentration, which is 10^-5 M for most compounds. The reported endpoint is percent growth (GI% or GIPRCNT), where numbers from 0 - 100% represent growth inhibition, and numbers from -100% - 0 represent cell death. For example, a value of 40 represents 60% growth inhibition. […]
About 83,000 compounds went through this panel and 20% of them were active in at least one assay; those are over-represented in the sample as a whole.
Decide by growth: equal to or exceeding 60% means criterion met, less means criterion not met.

Use these answered entries as a reference point.
1. CC12CC[C@@H]3[C@]4(C)COC(c5cn[nH]c5-c5cccc(Br)c5)O[C@@H]4CC[C@@]3(C)[C@@H]1CC(C1=CCOC1=O)O2 (some centres not stated)
criterion not met
2. Cc1ccc(C2CC(c3ccc(S(=O)(=O)NCCNc4nc(Nc5ccc(F)cc5)nc(N(C)C)n4)cc3)=Nc3c(N)nc(N)nc3N2)cc1 (configuration not stated)
criterion not met
3. N/N=C(\N)c1c(N)nc(=S)[nH]c1-c1ccc(Cl)cc1Cl
criterion met

Task item: Kindly determine if growth recorded for CCCS(=O)(=O)N1CCCC(C(=O)Nc2nc3ccc(NC(=O)c4ccc(F)c(OC)c4F)cc3s2)C1 (configuration not stated) is above or exactly 60%.
Reply: criterion not met

Task item: Kindly determine if growth recorded for CC(=O)OC[C@@]1(C)C2CC[C@]3(C)C(CC=C4C5CC(C)(C)CC[C@]5(C(=O)Nc5ccc(C)cc5)CC[C@]43C)[C@@]2(C)C[C@@H](OC(C)=O)[C@@H]1OC(C)=O (some centres not stated) is above or exactly 60%.
Reply: criterion not met
